# Target desc: UniProt:P17405
# Measurement notes: SMase assay with natural substrate sphingomyelin
# Assay type: biochemical
# Condition parameters: maximal inhibition, pH 5.0 buffer
Reported metric: Maximal resp., natural substrate (pH 5.0)
Your answer should be a number followed by the unit of measure.

[in] Fill in the blank: the reported Maximal resp., natural substrate (pH 5.0) of COc1cc(C(=O)Nc2scc(-c3ccc(Br)cc3)c2C(=O)O)cc(OC)c1OC [MLS001164606] is ____.
[out] 9.1%

[in] Fill in the blank: the reported Maximal resp., natural substrate (pH 5.0) of Clc1ccc(SCCOCCN2CCCCCC2)cc1.O=C(O)C(=O)O [MLS001164567] is ____.
[out] 97.8%

[in] Fill in the blank: the reported Maximal resp., natural substrate (pH 5.0) of O=C1CC(c2ccccc2)CC(=O)C1CS(=O)(=O)c1ccccc1 (stereo not drawn) [MLS000720877] is ____.
[out] 31.1%

[in] Fill in the blank: the reported Maximal resp., natural substrate (pH 5.0) of CCS(=O)(=O)C1=NN2C(=N)/C(=C\c3ccc(OC(=O)c4ccco4)cc3)C(=O)N=C2S1 [MLS000950682] is ____.
[out] 43.4%

[in] Fill in the blank: the reported Maximal resp., natural substrate (pH 5.0) of O=S(=O)(Nc1ccc(N=Nc2ccc(O)c3ccccc23)cc1)c1ccccc1 [MLS000707545] is ____.
[out] 72.0%

[in] Fill in the blank: the reported Maximal resp., natural substrate (pH 5.0) of S=c1nc(C2CC2)[nH]c2ccccc12 [MLS000097294] is ____.
[out] 103.2%

[in] Fill in the blank: the reported Maximal resp., natural substrate (pH 5.0) of COC(=O)C1=C(C)N(Cc2ccc(C)cc2)C(=O)/C1=C\c1ccc(O)c(OC)c1 [MLS000574110] is ____.
[out] 79.1%

[in] Fill in the blank: the reported Maximal resp., natural substrate (pH 5.0) of O=c1c(O)c(-c2cccs2)oc2ccccc12 [MLS000097140] is ____.
[out] 81.7%

[in] Fill in the blank: the reported Maximal resp., natural substrate (pH 5.0) of COc1ccc(C2=NN(C(=O)COC(=O)c3ccc(S(C)(=O)=O)c([N+](=O)[O-])c3)C(c3ccco3)C2)cc1 (stereo not drawn) [MLS002248315] is ____.
[out] 0.8%

---

# Target desc: Sphingomyelinase from human placenta (human L-ASM) (Homo sapiens, UniProt P17405)
# Sequence (P17405 47-631): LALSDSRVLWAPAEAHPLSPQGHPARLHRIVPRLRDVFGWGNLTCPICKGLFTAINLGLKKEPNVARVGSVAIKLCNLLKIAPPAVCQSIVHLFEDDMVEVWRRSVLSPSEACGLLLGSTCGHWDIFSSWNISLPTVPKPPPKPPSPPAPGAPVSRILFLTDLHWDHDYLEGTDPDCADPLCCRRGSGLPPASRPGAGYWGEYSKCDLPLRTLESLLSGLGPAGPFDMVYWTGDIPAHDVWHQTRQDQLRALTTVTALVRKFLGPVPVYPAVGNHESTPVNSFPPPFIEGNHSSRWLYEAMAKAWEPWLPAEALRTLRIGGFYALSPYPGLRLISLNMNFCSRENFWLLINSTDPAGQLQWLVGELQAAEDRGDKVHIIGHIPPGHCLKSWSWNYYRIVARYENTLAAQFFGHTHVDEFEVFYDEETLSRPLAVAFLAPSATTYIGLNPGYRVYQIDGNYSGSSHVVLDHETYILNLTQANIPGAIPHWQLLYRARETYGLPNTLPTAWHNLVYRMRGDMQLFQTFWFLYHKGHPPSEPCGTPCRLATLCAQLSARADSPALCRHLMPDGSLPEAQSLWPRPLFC
# Measurement notes: SMase assay with natural substrate sphingomyelin
# Type: biochemical
# Condition parameters: maximal inhibition, pH 6.5 buffer
Entries are sorted into classes by Maximal resp., natural substrate (pH 6.5) as follows: LOW: < 60%; MID: ≥ 60% and < 80%; HIGH: ≥ 80%

[in] Dear colleague, I would appreciate it if you could identify the bin for O=S(=O)(Nc1ccc(N=Nc2ccc(O)c3ccccc23)cc1)c1ccccc1 and reply at your convenience.
[out] MID

[in] Dear colleague, I would appreciate it if you could identify the bin for Clc1ccc(SCCOCCN2CCCCCC2)cc1.O=C(O)C(=O)O and reply at your convenience.
[out] HIGH

[in] Dear colleague, I would appreciate it if you could identify the bin for COc1cc(C(=O)Nc2scc(-c3ccc(Br)cc3)c2C(=O)O)cc(OC)c1OC and reply at your convenience.
[out] LOW

[in] Dear colleague, I would appreciate it if you could identify the bin for CCS(=O)(=O)C1=NN2C(=N)/C(=C\c3ccc(OC(=O)c4ccco4)cc3)C(=O)N=C2S1 and reply at your convenience.
[out] MID

[in] Dear colleague, I would appreciate it if you could identify the bin for COc1ccc(C2=NN(C(=O)COC(=O)c3ccc(S(C)(=O)=O)c([N+](=O)[O-])c3)C(c3ccco3)C2)cc1 (stereo not drawn) and reply at your convenience.
[out] LOW

[in] Dear colleague, I would appreciate it if you could identify the bin for O=c1c(O)c(-c2cccs2)oc2ccccc12 and reply at your convenience.
[out] HIGH

[in] Dear colleague, I would appreciate it if you could identify the bin for COC(=O)C1=C(C)N(Cc2ccc(C)cc2)C(=O)/C1=C\c1ccc(O)c(OC)c1 and reply at your convenience.
[out] HIGH

[in] Dear colleague, I would appreciate it if you could identify the bin for S=c1nc(C2CC2)[nH]c2ccccc12 and reply at your convenience.
[out] HIGH
